- Experimental Target: type B insulin receptor, P06213
- Test Name: cell-based or functional assay
Ends that are not written are not given here.
Measured Parameter: % activity in vitro (%)
Numbers only, in %.

MIU-43 DP8Mut3: B^1(H5,10Y16L17R29)30-C^1des9-12-A^1(H8,N18,21) (ligand) GPEHLCGAHLVDALYLVCGDRGFYFNKRTGYGSSSRRGIVDECCHRSCDLRRLENYCN : 16.7

List the reported % activity in vitro of each binder below.
1. DP3(TC): B^1(H5,10Y16L17K29)29:A^1(H8,N18,21) (ligand) chain 1: GPEHLCGAHLVDALYLVCGDRGFYFNKK chain 2: GIVDECCHRSCDLRRLENYCN
2. MIU-79 di-10K-SC: B1,A14-10K B^1(H5,10Y16L17R29)30-C^1des9-12-A^1(H8,K14,N18,21) (ligand, ends and bridges not checked) {PEG 10 kDa}-GPEHLCGAHLVDALYLVCGDRGFYFNKRTGYGSSSRRGIVDECCHRSCDLK(PEG 10 kDa)RLENYCN
3. DP8Mut3KA14: B^1(H5,10Y16L17R29)30-C^1des9-12-A^1(H8,K14,N18,21) (ligand) GPEHLCGAHLVDALYLVCGDRGFYFNKRTGYGSSSRRGIVDECCHRSCDLKRLENYCN
4. di-10K-TC: B1,A14-10K B^1(H5,10Y16L17R29)29:A^1(H8K14N18,21) (ligand, ends and bridges not checked) chain 1: {PEG 10 kDa}-GPEHLCGAHLVDALYLVCGDRGFYFNKR chain 2: GIVDECCHRSCDLK(PEG 10 kDa)RLENYCN

A.
1. 33.1
2. 0.2
3. 12.6
4. 2.1
